| COMPOUND | melting point |
| --- | --- |
| Cc1ccc(C2=C(C#N)C3(C(=O)Nc4ccc(Br)cc43)c3c(-c4cccs4)nn(-c4ccccc4)c3N2)cc1 (stereo not shown) | 282 to 284 °C |
| COc1ccc(C2=C(C#N)C3(C(=O)Nc4ccccc43)c3c(-c4cccs4)nn(-c4ccccc4)c3N2)cc1 (stereo not shown) | 296 to 298 °C |
| Cc1ccc(C2=C(C#N)C3(C(=O)Nc4ccccc43)c3c(-c4cccs4)nn(-c4ccccc4)c3N2)cc1 (stereo not shown) | 285 to 287 °C |
| N#CC1=C(c2ccc(Cl)cc2)Nc2c(c(-c3cccs3)nn2-c2ccccc2)C12C(=O)Nc1ccc(Cl)cc12 (stereo not shown) | 281 to 283 °C |
| N#CC1=C(c2ccc(Cl)cc2)Nc2c(c(-c3cccs3)nn2-c2ccccc2)C12C(=O)Nc1ccc(Br)cc12 (stereo not shown) | 293 to 294 °C |
| COc1ccc2c(c1)C1(C(=O)N2)C(C#N)=C(c2ccc(Cl)cc2)Nc2c1c(-c1cccs1)nn2-c1ccccc1 (stereo not shown) | 255 to 257 °C |
| COc1ccc2c(c1)C1(C(=O)N2)C(C#N)=C(c2ccc(C)cc2)Nc2c1c(-c1cccs1)nn2-c1ccccc1 (stereo not shown) | 268 to 269 °C |
| COc1ccc(C2=C(C#N)C3(C(=O)Nc4ccc(OC)cc43)c3c(-c4cccs4)nn(-c4ccccc4)c3N2)cc1 (stereo not shown) | 279 to 281 °C |
| COc1ccc(C2=C(C#N)C3(C(=O)Nc4ccc(Br)cc43)c3c(-c4cccs4)nn(-c4ccccc4)c3N2)cc1 (stereo not shown) | > 300 °C |
| Cc1ccc(C2=C(C#N)C3(C(=O)Nc4ccc(Cl)cc43)c3c(-c4cccs4)nn(-c4ccccc4)c3N2)cc1 (stereo not shown) | 286 to 288 °C |
| COc1ccc(C2=C(C#N)C3(C(=O)Nc4ccc(Cl)cc43)c3c(-c4cccs4)nn(-c4ccccc4)c3N2)cc1 (stereo not shown) | > 300 °C |
| COc1ccc2c(c1)C1(C(=O)N2)C(C#N)=C(c2ccccc2)Nc2c1c(-c1cccs1)nn2-c1ccccc1 (stereo not shown) | 276 to 278 °C |
| N#CC1=C(c2ccc(Cl)cc2)Nc2c(c(-c3cccs3)nn2-c2ccccc2)C12C(=O)Nc1ccccc12 (stereo not shown) | 279 to 281 °C |

Cited source: paper PMC6009943
